Overview of reported pIC50 across a group of compounds:
TARGET: c-Met (cytoplasmic domain) (Homo sapiens, UniProt P08581)
Construct: 10 ng/mL c-Met (cytoplasmic domain, Invitrogen Corporation #PV3143); purchased Invitrogen Corporation PV3143
Sequence (P08581 956-1390 limits assumed): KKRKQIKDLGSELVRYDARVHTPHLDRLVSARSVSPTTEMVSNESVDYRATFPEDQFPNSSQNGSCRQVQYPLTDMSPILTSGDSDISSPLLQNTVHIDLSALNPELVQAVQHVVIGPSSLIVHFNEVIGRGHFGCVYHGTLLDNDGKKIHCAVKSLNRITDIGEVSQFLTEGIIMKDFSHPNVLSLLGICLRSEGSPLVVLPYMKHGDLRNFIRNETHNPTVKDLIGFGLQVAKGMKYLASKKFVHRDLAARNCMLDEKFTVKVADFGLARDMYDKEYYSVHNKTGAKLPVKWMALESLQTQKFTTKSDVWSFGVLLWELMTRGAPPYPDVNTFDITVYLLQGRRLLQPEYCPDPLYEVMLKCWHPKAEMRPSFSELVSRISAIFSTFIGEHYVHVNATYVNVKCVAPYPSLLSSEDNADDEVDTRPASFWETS
ASSAY_PROCEDURE: c-Met Kinase Assay (same methods as for ALK, with modifications)
Format: biochemical
REPORTED_CONDITIONS: c-Met kinase inhibition, 1 μM ATP; read-out: cMet Activity
pIC50: −log10 of the molar value.

Please review the entries below; each comes with its answer.
C#CCOc1cccc(F)c1Nc1nc(Nc2ccc3c(c2)CCOC(=O)N3C)ncc1Cl; 6.00 to 7.00
COc1cc2c(cc1Nc1ncc(Cl)c(Nc3ccccc3S(=O)(=O)N(C)C)n1)CCN(CCN1CCOCC1)CC2; 5.00 to 6.00
Cc1noc(-c2cccc(F)c2Nc2nc(Nc3ccc4c(c3)CCOC(=O)N4C)ncc2Cl)n1; 6.00 to 7.00

Okay, now this compound:
Problem: Which pIC50 value is on record for CNC(=O)c1sccc1Nc1nc(Nc2ccc3c(c2)NC(=O)CCC3)ncc1Cl ?
Solution: 6.00 to 7.00
